# Lookup of reported helicity ([θ]222/[θ]208) keyed by entry
- Protocol: CD spectroscopy of cell-penetrating peptides (helicity)
- Experimental setup: CD spectra
Where no end group is shown, it is not given here. [ ]: non-standard residue; d: D form. Aib = CC(C)(N)C(=O)O
Reply: number alone, nothing else.

Task: Given the entry UAUNRARQUAUNRARQUAUNRARQUAUNRARQUAU ([Aib]A[Aib]NRARQ[Aib]A[Aib]NRARQ[Aib]A[Aib]NRARQ[Aib]A[Aib]NRARQ[Aib]A[Aib]-NH2) [CPP17] , report its measured helicity ([θ]222/[θ]208).
Result: 0.78

Task: Given the entry UAUQRRANUAUQRRANUAUQRRANUAUQRRANUAU ([Aib]A[Aib]QRRAN[Aib]A[Aib]QRRAN[Aib]A[Aib]QRRAN[Aib]A[Aib]QRRAN[Aib]A[Aib]-NH2; not fully specified) [CPP15] , report its measured helicity ([θ]222/[θ]208).
Result: 0.66

Task: Given the entry UAUQRARNUAUQRARNUAUQRARNUAUQRARNUAU ([Aib]A[Aib]QRARN[Aib]A[Aib]QRARN[Aib]A[Aib]QRARN[Aib]A[Aib]QRARN[Aib]A[Aib]-NH2; not fully specified) [CPP14] , report its measured helicity ([θ]222/[θ]208).
Result: 0.81

Task: Given the entry UAUNRRAQUAUNRRAQUAUNRRAQUAUNRRAQUAU ([Aib]A[Aib]NRRAQ[Aib]A[Aib]NRRAQ[Aib]A[Aib]NRRAQ[Aib]A[Aib]NRRAQ[Aib]A[Aib]-NH2) [CPP16] , report its measured helicity ([θ]222/[θ]208).
Result: 0.66

Task: Given the entry UAUNARRQUAUNARRQUAUNARRQUAUNARRQUAU ([Aib]A[Aib]NARRQ[Aib]A[Aib]NARRQ[Aib]A[Aib]NARRQ[Aib]A[Aib]NARRQ[Aib]A[Aib]-NH2) [CPP18] , report its measured helicity ([θ]222/[θ]208).
Result: 0.72

Source of measurements: patent US20240368230A1
